- Tested on: A549
- method_notes: Cytotoxicity against human A549 cells assessed as growth inhibition after 72 hrs by MTT assay
- Assay type: functional, cell-based
- assay_setup: A549, 72 h
value_kind: pIC50
Give bare numbers, as −log10 of the molar value.

Illustrative cases are given below, each with its answer.
[[record]]
smiles_data = "COc1ccc2oc(=O)c(/C=C/C(=O)N3CCC=CC3=O)c(O)c2c1"
result_number = 5.01

[[record]]
smiles_data = "COc1ccc2c(O)c(/C=C/C(=O)N3CCC=CC3=O)c(=O)oc2c1"
result_number = 4.96

[[record]]
smiles_data = "COc1cc(/C=C/C(=O)N2CCC=CC2=O)cc(OC)c1OC"
result_number = 5.00


List reported pIC50 for each of these compounds:
1. O=C1C=CCCN1C(=O)/C=C/c1c(O)c2ccc(F)cc2oc1=O
2. O=C1C=CCCN1C(=O)/C=C/c1c(O)c2ccc(Cl)cc2oc1=O
3. O=C1C=CCCN1C(=O)/C=C/c1c(O)c2ccccc2oc1=O

# output
4.74
5.19
4.92

List reported pIC50 for each of these compounds:
1. COc1cc2c(O)c(/C=C/C(=O)N3CCC=CC3=O)c(=O)oc2c(OC)c1OC
2. Cc1cc2oc(=O)c(/C=C/C(=O)N3CCC=CC3=O)c(O)c2cc1C

# output
1. 5.38
2. 4.82
